Target: T1, Human Siglec-7 (human, UniProt Q9Y286 19-467)
T1 construct: Expressed on transfected CHO cells; also called huSiglec-7; CD328
T1 sequence (Q9Y286 19-467): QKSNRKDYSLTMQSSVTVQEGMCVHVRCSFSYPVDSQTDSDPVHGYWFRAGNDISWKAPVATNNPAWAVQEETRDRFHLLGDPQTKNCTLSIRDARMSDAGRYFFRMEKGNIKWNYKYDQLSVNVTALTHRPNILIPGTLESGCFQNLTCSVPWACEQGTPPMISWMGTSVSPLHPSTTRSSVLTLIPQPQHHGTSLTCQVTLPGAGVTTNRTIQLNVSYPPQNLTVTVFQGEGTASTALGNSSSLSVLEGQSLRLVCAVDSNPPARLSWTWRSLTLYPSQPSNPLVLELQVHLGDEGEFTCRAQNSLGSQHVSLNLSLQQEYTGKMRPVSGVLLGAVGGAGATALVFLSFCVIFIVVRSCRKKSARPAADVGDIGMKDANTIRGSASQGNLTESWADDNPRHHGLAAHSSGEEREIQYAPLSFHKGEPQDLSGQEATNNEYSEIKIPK
Test: flow cytometry, CHO transfectants

{"binder": "mAbB (antibody, human IgG1, V domains shown) VH: QVQLQQPGAELVKPGASVKLSCKASVYTFTSYWMHWVKQRPGQGLEWIGEINPSNGHTNYNEKFKTKAKLTVDKSSSTAYMQLSSLTSEDSAVYFCANGVETYDFDDAMDYWGQGTSVTVSS VL: DIQMTQTTSSLSASLGDRVTISCRASQDINNYLNWYQQKPDGTVKLLIYFTSRLHSGVPSRFSGSGSGTDYSLTISNLEQEDIATYFCQQGDTFPFTFGGGTKLEIK", "binding result": "no binding"}
{"binder": "mAbD (antibody, human IgG1, V domains shown) VH: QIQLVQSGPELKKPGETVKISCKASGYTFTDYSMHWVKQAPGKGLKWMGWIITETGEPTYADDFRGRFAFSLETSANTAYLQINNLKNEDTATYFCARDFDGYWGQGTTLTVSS VL: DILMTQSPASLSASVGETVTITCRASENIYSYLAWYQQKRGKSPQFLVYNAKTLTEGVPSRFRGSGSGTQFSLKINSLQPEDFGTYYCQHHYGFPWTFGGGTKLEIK", "binding result": "no binding"}
